Hi there, I'd appreciate the recorded cell survival rate higher than Lipofectamine 3000 for every entry that follows.
system: 293T cells; assay: Cell survival rate assay (CCK-8); format: cell-based; details: difference vs Lipofectamine 3000
I'd appreciate it if you included the unit after the number.

Query block: Dear colleague, I am looking for the recorded cell survival rate higher than Lipofectamine 3000 of the following molecule: `CCCCCCCCC(CCCCCCCC)OC(=O)CCCCCCCN(CCO)CCN(CCO)CCCCCCCC(=O)OC(CCCCCCCC)CCCCCCCC`
Result block: 49.10%

Query block: Which cell survival rate higher than Lipofectamine 3000 reading was recorded for the molecule `CCCCCCCCCCCOC(=O)CCCN(CCO)CCN(CCO)CCCCCC(=O)OC(CCCCCCCC)CCCCCCCC` ?
Result block: 49.71%

Query block: Item `CCCCCCCCC(CCCCCCCC)OC(=O)CCCCCN(CCO)CCN(CCO)CCCCCC(=O)OC(CCCCCCCC)CCCCCCCC` has what recorded cell survival rate higher than Lipofectamine 3000?
Result block: 53.55%

Query block: I would be grateful if you could share the reported cell survival rate higher than Lipofectamine 3000 for `CCCCCCCCC(CCCCCCCC)COC(=O)CCCCCN(CCCO)CCN(CCCO)CCCCCC(=O)OCC(CCCCCCCC)CCCCCCCC` .
Result block: 48.82%

Query block: If you can, please state the reported cell survival rate higher than Lipofectamine 3000 value of `CCCCCCCCC(CCCCCCCC)C(=O)OCCCCCCN(CCO)CCN(CCO)CCCCCCOC(=O)C(CCCCCCCC)CCCCCCCC` .
Result block: 51.04%

Query block: Which cell survival rate higher than Lipofectamine 3000 is reported for this molecule? `CCCCCCCCC(CCCCCCCC)COC(=O)CCCCCN(CCCO)CCCN(CCCO)CCCCCC(=O)OCC(CCCCCCCC)CCCCCCCC`
Result block: 49.48%

----------
system: 293T cells; assay: Fluorescent detection of Fluc-mRNA (cell transfection efficiency of LNP formulations); format: cell-based; conditions: LNP with 0.3 μg Fluc-mRNA, 96-well plate, 24 hours
For each of the molecules below, state its Relative light unit (RLU).
Note: unit RLU is implicit; provide only the numeric part.

Query block: Requested read-out Relative light unit (RLU), target or system 293T cells, entry CCCCCCCCCCOC(=O)CCCCCN(CCO)CCCN(CCO)CCCCCC(=O)OCCC(CCCCCC)CCCCCC [YK-417]
Result block: 117287

Query block: Field: Relative light unit (RLU) (293T cells). Entry: CCCCCCCCC(CCCCCCCC)C(=O)OCCCCCCN(CCO)CCN(CCO)CCCCCCOC(=O)C(CCCCCCCC)CCCCCCCC [YK-402]
Result block: 5044102

Query block: Record lookup: for 293T cells, what Relative light unit (RLU) belongs to CCCCCCCCCCOC(=O)CCCCCN(CCO)CCCN(CCO)CCCCCC(=O)OCC(CCCCCCCC)CCCCCCCC [YK-416] ?
Result block: 3975264

Query block: Observed Relative light unit (RLU) on 293T cells for CCCCCC(CC)OC(=O)CCCCCCCCN(CCO)CCN(CCO)CCCCCCCCC(=O)OC(CC)CCCCC (stereo not shown) [YK-404] , please.
Result block: 7543

----------
test: Detection of encapsulation efficiency, drug loading concentration and total RNA concentration (RiboGreen); type: physicochemical; conditions: ratio vs YK-009
measured_property: total RNA concentration, times that of YK-009
Could you keep your reply to the number by itself?

Query block: Could you tell me which total RNA concentration, times that of YK-009 is on file for `CCCCCCCCC(CCCCCCCC)OC(=O)CCCCCN(CCO)CCN(CCO)CCCCCC(=O)OC(CCCCCCCC)CCCCCCCC` ?
Result block: 1.08

Query block: Consider the compound shown here: `CCCCCCCCCCCOC(=O)CCCN(CCO)CCN(CCO)CCCCCC(=O)OC(CCCCCCCC)CCCCCCCC` What is its recorded total RNA concentration, times that of YK-009?
Result block: 1.06

Query block: Find the recorded total RNA concentration, times that of YK-009 belonging to `CCCCCCCCC(CCCCCCCC)COC(=O)CCCCCN(CCCO)CCCN(CCCO)CCCCCC(=O)OCC(CCCCCCCC)CCCCCCCC` and report it.
Result block: 1.06

Query block: Which value of total RNA concentration, times that of YK-009 has been reported for `CCCCCCCCC(CCCCCCCC)OC(=O)CCCCCCCN(CCO)CCN(CCO)CCCCCCCC(=O)OC(CCCCCCCC)CCCCCCCC` in the records?
Result block: 1.05

Query block: # total RNA concentration, times that of YK-009 lookup, item `CCCCCCCCC(CCCCCCCC)C(=O)OCCCCCCN(CCO)CCN(CCO)CCCCCCOC(=O)C(CCCCCCCC)CCCCCCCC`
Result block: 1.04

Query block: Reported total RNA concentration, times that of YK-009, compound `CCCCCCCCC(CCCCCCCC)COC(=O)CCCCCN(CCCO)CCN(CCCO)CCCCCC(=O)OCC(CCCCCCCC)CCCCCCCC` : ____
Result block: 1.19

----------
Experiment: Particle size and polydispersity index (PDI) of lipid nanoparticles by dynamic light scattering
Assay type: physicochemical
Details: LNP formulation of the cationic lipid/DSPC/cholesterol/DMG-PEG2000 49:10:39.5:1.5, 25° C.
Method: The particle size and polydispersity index (PDI) were determined by dynamic light scattering using Malvern laser particle size analyzer. 10 μL of the liposome solution was weighed, diluted to 1 mL with RNase-free deionized water, and added to the sample pool. Each sample was measured in triplicate. The measurement conditions were: […] scattering angle, and 25° C.
measured_property: Particle size (nm)
Numbers only here, please. The scale is nm.

Query block: Which measured Particle size value corresponds to CCCCCCCCCCCOC(=O)CCCN(CCO)CCCN(CCO)CCCCCC(=O)OC(CCCCCCCC)CCCCCCCC [YK-413] ?
Result block: 160

Query block: Find the recorded Particle size belonging to CCCCCCCCCCCOC(=O)CCCCCN(CCO)CCCCCCCC(=O)OC(CCCCCCCC)CCCCCCCC [SM-102, reference compound] and report it.
Result block: 154

Query block: Particle size for CCCCCCCCCCOC(=O)CCCN(CCO)CCN(CCO)CCCC(=O)OC(CCCCCCCC)CCCCCCCC [YK-408] ?
Result block: 136

Query block: Give its Particle size value. Item: CCCCCCCCC(CCCCCCCC)OC(=O)CCCCCN(CCO)CCCCN(CCO)CCCCCC(=O)OC(CCCCCCCC)CCCCCCCC [YK-420]
Result block: 169

Query block: Using the record for CCCCCCCCCCCOC(=O)CCCN(CCO)CCN(CCO)CCCCCC(=O)OC(CCCCCCCC)CCCCCCCC [YK-407] , report its Particle size.
Result block: 162

Query block: What does the record list as Particle size for CCCCCCCCCCCOC(=O)CCCN(CCO)CCCN(CCO)CCCCCC(=O)OCC(CCCCCCCC)CCCCCCCC [YK-415] ?
Result block: 178

Query block: Need Particle size of CCCCCCCCC(CCCCCCCC)COC(=O)CCCCCN(CCCO)CCN(CCCO)CCCCCC(=O)OCC(CCCCCCCC)CCCCCCCC [YK-422] , thanks.
Result block: 146

Query block: Value lookup for Particle size; key = CCCCCCCCCCOC(=O)CCCCCN(CCO)CCN(CCO)CCCCCC(=O)OCCC(CCCCCC)CCCCCC [YK-411]
Result block: 150

Query block: # get_value(readout='Particle size', item= CCCCCCCCC(CCCCCCCC)COC(=O)CCCCCN(CCCO)CCCCN(CCCO)CCCCCC(=O)OCC(CCCCCCCC)CCCCCCCC [YK-424] )
Result block: 170

Query block: Name the reported Particle size value associated with the compound CCCCCCCCCCCOC(=O)CCCN(CCO)CCN(CCO)CCCCCCOC(=O)CC(CCCCCC)CCCCCC [YK-406]
Result block: 154

Query block: If you can, please state the reported Particle size value of CCCCCCCCCCOC(=O)CCCCCN(CCO)CCN(CCO)CCCCCC(=O)OCC(CCCCCCCC)CCCCCCCC [YK-410] .
Result block: 163

Query block: Need Particle size, item CCCCCCCCCCOC(=O)CCCN(CCO)CCCCN(CCO)CCCCCC(=O)OC(CCCCCCCC)CCCCCCCC [YK-421]
Result block: 148

Query block: GET /values?readout=Particle size&item= CCCCCCCCCCCCC(O)CN(C)CCCCCC(=O)OCC(CCCCCC)CCCCCCCC (stereo not drawn) [HHMA, reference compound]
Result block: 144

Query block: Endpoint output: Particle size of CCCCCCCCCCCOC(=O)CCCN(CCO)CCN(CCO)CCCCCC(=O)OCC(CCCCCCCC)CCCCCCCC [YK-409] . Value?
Result block: 155

Query block: What Particle size value was documented for this compound, CCCCCCCCC(CCCCCC)C(=O)OCCCCCCN(CCCCO)CCCCCCOC(=O)C(CCCCCC)CCCCCCCC (stereo not drawn) [ALC-0315, reference compound] ?
Result block: 205
